# System: Trypanosoma cruzi
# ASSAY_INFO: Trypanosoma cruzi phosphomannomutase and mannose-1-phosphate guanylyltransferase assay
# Format: functional
# Set-up: scale not given: direction of the effect not stated beside the values
# CONDITION_NOTES: 10 µM
EXPERIMENTAL_ENDPOINT: Percent Effect (%)
// note: answer is a bare numeric in %

Lookup: Given O=C(CN1CCC(c2ccnn2CCO)CC1)NCC1CC1 , state its recorded Percent Effect.
Found: 2.36

Lookup: Name the recorded Percent Effect for O=C(CSC1CCc2ccccc2NC1=O)NCCO (stereo not drawn) .
Found: 1.84

Lookup: Consider the molecule CN1CCC(Oc2ccc(NC(=O)c3cccc(Cl)c3)cc2)CC1 and give its measured Percent Effect.
Found: 3.05

Lookup: Could you share which Percent Effect value was measured for CC(C)N(C)C(=O)C1=NOC2(CCN(C(=O)c3ccccn3)C2)C1 (stereo not drawn) ?
Found: -5.95

Lookup: Item CS(=O)(=O)N1CCOCC2(CN(Cc3ccco3)CCO2)C1 (stereo not drawn) has what recorded Percent Effect?
Found: -1.19

Lookup: Fill in the blank: the reported Percent Effect of CC(NC(=O)CCc1cccs1)c1nnc2n1CCC2 (stereo not drawn) is ____.
Found: 1.95

Lookup: Returns the measured Percent Effect for the input molecule. Input: COc1ncc(C2(O)CCN(Cc3c(F)cccc3F)CC2)c(OC)n1
Found: 1.97

Lookup: Entry O=C(c1ccoc1)N1CCC2(CC1)C(=O)Nc1ccccc12 has what Percent Effect?
Found: 2.44

Lookup: Please look up its Percent Effect: Cc1nc(CN2CCCN(CCOc3cccc(C#N)c3)CC2)no1
Found: -7.38

Lookup: Give its Percent Effect value. Item: CCn1cc(N2Cc3nc(N4CCOCC4)ncc3C2=O)cn1
Found: 0.786

Lookup: Any idea what Percent Effect was measured for Cc1ccoc1C(=O)N1CC[C@H]2O[C@@H](C)C[C@H]2C1 ?
Found: 5.6

Lookup: Can you look up the measured Percent Effect of Cc1cnccc1N1CCCN(C(=O)CCCS(N)(=O)=O)CC1 for me?
Found: 1.37

Lookup: I would be grateful if you could share the reported Percent Effect for Cc1cccc(CS(=O)(=O)CC(=O)NCCCOC(C)C)c1 .
Found: 9.74

Lookup: Entry COCCCNC(=O)CN(C)C(=O)c1cc(C)sc1C has what Percent Effect?
Found: -4.55

Lookup: Param item = CCc1c(C(=O)NCC2CCS(=O)(=O)C2)cnn1-c1ccc(C)cc1 (stereo not drawn) ; retrieve measured Percent Effect.
Found: 2.74

Lookup: Form field: reported Percent Effect of Cc1cnn(CC2CCCN2CC(=O)N(C)CCC#N)c1 (stereo not drawn)
Found: -0.386

Lookup: Value lookup for Percent Effect; key = CC(C)c1cc(NC(=O)CN2CCc3cncnc3C2)on1
Found: 1.31

Lookup: For the molecule shown here, CC(C)n1[nH]c(=O)c2c1NC(=O)CC2c1cccc(OC(F)F)c1 (stereo not drawn) , give the reported Percent Effect.
Found: -8.63

Lookup: // Percent Effect lookup, key: CCc1nc(C2CCCN2C(=O)c2cc(C3CC3)[nH]n2)no1 (stereo not drawn)
Found: -5.02

Lookup: Recorded Percent Effect for CN(C(=O)Cc1c[nH]c2ccccc12)C1CCN(c2ccccn2)CC1 , please?
Found: -3.81

Lookup: Could you tell me which Percent Effect is on file for COc1cccc(C(=O)N2CCCC(c3cc(C)[nH]n3)C2)c1OC (stereo not drawn) ?
Found: 8.4

Lookup: Returns the measured Percent Effect for the input molecule. Input: Cc1nn(C)c(C)c1C1CCCN1Cc1cccc(C(=O)N(C)C)c1 (stereo not drawn)
Found: 4.06

Lookup: Return reported Percent Effect; argument: CN(C)C(=O)C1CCCN1CCCNC(=O)c1ccccc1F (stereo not drawn)
Found: -0.783

Lookup: Entry COc1ccc(C2CC(=O)Nc3c2nc2n3CCCC2)cc1OC (stereo not drawn) has what Percent Effect?
Found: -4.56

Lookup: Which Percent Effect value belongs to COc1ccccc1CNC(=O)N1CCCC(c2nncn2C)C1 (stereo not drawn) ?
Found: 0.654

Lookup: Which Percent Effect is listed for O=C(NC[C@H]1OC[C@@H]2CCN(Cc3ccco3)C[C@@H]21)c1ccsc1 ?
Found: 4.17

Lookup: Please give the measured Percent Effect for this molecule: Cc1cc(C)n(C2CN(CC(=O)N(C)Cc3ccc(C)o3)C2)n1
Found: 2.82

Lookup: Entry CC(=O)NCCc1cc(N2CCN(C(C)=O)CC2)nc(C2CC2)n1 : reported Percent Effect = ?
Found: -3.75

Lookup: So what does the record say about Percent Effect for Cc1cc(C(=O)N2CCCCC2c2nc(C)cs2)[nH]n1 (stereo not drawn) ?
Found: 5.62

Lookup: What does the data say about its Percent Effect? Entry: CN1[C@H](Cn2cccn2)C[C@@H]2CN(C(=O)Cc3cccs3)CC[C@@H]21
Found: -3.56

Lookup: Fill in: Percent Effect of Cc1cc(CN2CCCC(C)(CO)C2)ccc1F (stereo not drawn) is ___
Found: 2.05

Lookup: For the molecule Cc1nc(C)n(C2CCCN(C(=O)c3ccc(F)cc3F)C2)n1 (stereo not drawn) , what Percent Effect is on record?
Found: 2.73

Lookup: Which value of Percent Effect has been reported for CN(C)C(=O)c1nc2c(s1)CCN(C(=O)c1ccc(Cl)cc1)CC2 in the records?
Found: 2.7

Lookup: GET /values?readout=Percent Effect&item= Cc1cc(C(=O)N2CCc3nnc(N(C)C)cc3C2)c(C)n1C1CC1
Found: -0.513

Lookup: Entry Cc1nc(C)c(C(=O)N2CCC(Nc3cccnc3)CC2)s1 : reported Percent Effect = ?
Found: -3.37

Lookup: What Percent Effect value was documented for this molecule, Cc1cc(NC(=O)NCC(C)O)n(C)n1 (stereo not drawn) ?
Found: 5.64

Lookup: Report Percent Effect for CCS(=O)(=O)NCCNC(=O)c1cc(Cl)c2c(c1)OCCCO2 please.
Found: 1.47

Lookup: Look up Percent Effect: COCCNC(=O)CN1CCN(c2nc(C)cs2)C(C)C1 (stereo not drawn)
Found: 5.11

Lookup: What does the data say about its Percent Effect? Entry: COCC1CN(CC2CC2)Cc2nn(C)cc21 (stereo not drawn)
Found: -6.91

Lookup: So what's the measured Percent Effect for this one? CS(=O)(=O)NCCNC(=O)C1(c2cccc(Cl)c2)CC1
Found: 1.07

Lookup: Percent Effect for CC(=O)N(Cc1ncc(C)o1)C1CCN(CCCc2cnn(C)c2)C1 (stereo not drawn) ?
Found: 1.41

Lookup: Consider the molecule Cc1ccc(CN2CCCn3nnc(COCC4CC4)c3C2)s1 and give its measured Percent Effect.
Found: -2.76

Lookup: Please report the recorded Percent Effect for CC(C)n1c(=O)nc2n1C(=O)N(c1ccc(F)cc1)C2 .
Found: 0.682

Lookup: Returns the measured Percent Effect for the input molecule. Input: COc1ccccc1OCCN1CCC(N2CCNC2=O)CC1
Found: -5.66

Lookup: For the molecule CC(C)Cc1noc(CN2CCC(NC(=O)c3cccs3)CC2)n1 , what Percent Effect is on record?
Found: 3.64

Lookup: Dear colleague, I am looking for the recorded Percent Effect of the following molecule: CCN(CC)CCNc1ncc(-c2cc(C)no2)c(-c2ccoc2C)n1
Found: 2.77

Lookup: Look up Percent Effect for this molecule: CCc1nc(C2CCCN(C(=O)CN(C)S(C)(=O)=O)C2)no1 (stereo not drawn)
Found: 6.95

Lookup: Fill in: Percent Effect of CCN(C)c1ncnc2c1CCN(Cc1ccoc1)CC2 is ___
Found: 8.86

====

Exercise: for every item that follows, state its recorded Percent Effect.
# MEASURED_TARGET: Tyrosyl-tRNA synthetase, putative (Trypanosoma cruzi (strain CL Brener))
# Sequence (whole entry): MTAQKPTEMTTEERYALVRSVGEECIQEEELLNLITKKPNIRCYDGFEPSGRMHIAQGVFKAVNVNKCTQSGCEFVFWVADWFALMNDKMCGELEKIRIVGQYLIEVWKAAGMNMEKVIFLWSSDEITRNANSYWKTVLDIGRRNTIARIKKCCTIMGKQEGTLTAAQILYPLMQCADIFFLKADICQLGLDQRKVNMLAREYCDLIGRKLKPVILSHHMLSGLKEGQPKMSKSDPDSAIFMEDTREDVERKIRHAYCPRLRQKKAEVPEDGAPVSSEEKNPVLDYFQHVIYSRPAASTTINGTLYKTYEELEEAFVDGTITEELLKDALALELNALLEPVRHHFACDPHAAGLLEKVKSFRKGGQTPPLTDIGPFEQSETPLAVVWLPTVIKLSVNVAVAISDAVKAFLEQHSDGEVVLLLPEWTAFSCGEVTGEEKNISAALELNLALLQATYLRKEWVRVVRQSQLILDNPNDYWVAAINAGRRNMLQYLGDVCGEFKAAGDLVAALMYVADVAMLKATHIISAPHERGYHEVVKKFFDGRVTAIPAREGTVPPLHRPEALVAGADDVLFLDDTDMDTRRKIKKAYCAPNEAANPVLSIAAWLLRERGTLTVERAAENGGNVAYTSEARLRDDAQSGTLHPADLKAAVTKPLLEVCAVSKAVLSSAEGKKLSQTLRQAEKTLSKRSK
# ASSAY_INFO: Trypanosoma cruzi tyrosyl tRNA synthetase (TcYRS) SOP
# Assay type: functional
# Parameters: scale not given: direction of the effect not stated beside the values
# CONDITION_NOTES: 30 µM
Give the number; % is assumed, so skip it.

Lookup: Entry N#CCCN(C(=O)CN1CCCC1C1CCCCC1)c1ccccc1 (stereo unspecified) : reported Percent Effect = ?
Found: 8.54

Lookup: # input compound: COc1ccc(C(=O)N2CC[C@H](CO)[C@H](O)C2)c(C)c1 ; wanted: its Percent Effect
Found: 9.76

Lookup: Endpoint output: Percent Effect of Cc1ccc(C#N)cc1NC(=O)NC1CCCN(c2ncccn2)C1 (stereo unspecified) . Value?
Found: 18.8

Lookup: State the recorded Percent Effect for this entry: CN(C)S(=O)(=O)N1CCC[C@]2(C[C@@H](Oc3ccccn3)CO2)C1
Found: 6.41

Lookup: Sample CC(C)n1ccnc1C1CCN(C(=O)c2cc[nH]n2)CC1 — what was its Percent Effect?
Found: 19.5

Lookup: Quick one: Percent Effect for O=C(Nc1ccccc1)c1nn(C2CCS(=O)(=O)C2)c2c1CCCC2 (stereo unspecified) ?
Found: 10.4

Lookup: Which Percent Effect reading was recorded for the compound Cc1cnn(CC2CCCN2Cc2nnc(Cc3ccccc3)o2)c1 (stereo unspecified) ?
Found: 3.7

Lookup: Name the reported Percent Effect value associated with the compound O=C(NCc1nn(-c2ccccc2)c2c1CCC2)NC1CC1
Found: 8.43

Lookup: Recorded Percent Effect for CCn1cc(CN2CCCn3nc(CNC(=O)C4CCC4)cc3C2)cn1 , please?
Found: 13.6

Lookup: Name the recorded Percent Effect for CCOCC(O)CN1CCN(C(=O)c2cccnc2OC)CC1 (stereo unspecified) .
Found: 0

Lookup: Looking for the measured Percent Effect of CC(C)NC(=O)N1CCN(C(=O)N(C)C)CC2(CC(=O)N(C)C2)C1 (stereo unspecified) , can you help?
Found: 13.4

Data credit: ChEMBL document CHEMBL3988442
